Experiment: Quantitative High-Throughput drug screen in 47 multiple myeloma cell lines against the NCATS MIPE library collection: INA6_PLB cell viability assay (AID 1918965; also: nearly all actives have a fitted effect of over 55% in size)
Conditions: INA6 myeloma viability, CellTiter-Glo ATP luminescence, 48 h; series mostly up to 45.8 µM
Records with an inconclusive call do not appear. The source made the active and inactive calls. Calls follow the shape of the dose curve; as a rule, active = well fitted cell-killing curve with a large enough effect; inconclusive = small, poorly fitted or top-dose-only effect, or effect the other way; inactive = no such curve, though single readings can be large or run the other way.
Hello, when you answer, please use one of the following outcomes: Y for active, N for inactive

Data request: Please state the recorded outcome for this compound: `CCOC(=O)[C@H]1O[C@H]1C(=O)N[C@@H](CC(C)C)C(=O)NCCC(C)C`
Data returned: N

Data request: Could you check what this test reported for `C[C@@H]1CCO[C@H]2Cn3cc(C(=O)NCc4ccc(F)cc4F)c(=O)c(O)c3C(=O)N12` ?
Data returned: Y

Data request: What was the test verdict on `CCc1cc(-c2n[nH]c(C)c2-c2ccc3c(c2)OCCO3)c(O)cc1O` ?
Data returned: Y

Data request: Field: outcome | Entry: `CCN(CCO)CCCOc1ccc2c(Nc3cc(CC(=O)Nc4cccc(F)c4)[nH]n3)ncnc2c1`
Data returned: Y

Data request: Hi, sorry to bother you, what did the test record for `C[C@@H]1CC=CC=CC=CC=C[C@@H](O[C@@H]2O[C@H](C)[C@@H](O)[C@H](N)[C@H]2O)C[C@@H]2O[C@](O)(C[C@@H](O)C[C@@H]3O[C@@H]3C=CC(=O)O1)C[C@H](O)[C@@H]2C(=O)O` ?
Data returned: Y

Data request: Hi, sorry to bother you, what did the test record for CC1(C)OC2CC3C4CC(F)C5=CC(=O)C=CC5(C)C4C(O)CC3(C)[C@]2(C(=O)CO)O1 (stereo not given in full) ?
Data returned: N

Data request: Dear colleague, could you share the recorded outcome for `CC[C@H](C)n1cc(C)c2c(C(=O)NCc3c(C)cc(C)[nH]c3=O)cc(-c3ccc(N4CCNCC4)nc3)cc21` when you have a moment?
Data returned: Y

Data request: Each compound tested received a call. Report the one for `CCC[C@H](Nc1nc(-c2ccc(NC(=O)NCC)c(OC)c2)ncc1C)c1cccnc1` .
Data returned: Y

Data request: Assay outcome for `NC(=O)c1nnn(Cc2cc(Cl)c(C(=O)c3ccc(Cl)cc3)c(Cl)c2)c1N` : what was it?
Data returned: Y

Data request: Outcome logged for `CC1(C)[C@H]2CC[C@]3(C)[C@@H](C(=O)C=C4[C@@H]5C[C@@](C)(C(=O)O)CC[C@]5(C)CC[C@]43C)[C@@]2(C)CC[C@@H]1O` in this assay:
Data returned: N

Data request: Record request — test call for `CNC(=O)c1cc(Oc2ccc(NC(=O)Nc3ccc(Cl)c(C(F)(F)F)c3)c(F)c2)ccn1`
Data returned: Y

Data request: Called result for `O=[N+]([O-])c1ccc(Nc2ccccc2-c2ccccc2)c2nonc12`
Data returned: Y

Data request: Dear colleague, could you share the recorded outcome for `Cc1cnc(CNC(=O)c2c(=O)c3ccc(N4CCCN(C)CC4)nc3n3c2sc2ccccc23)cn1` when you have a moment?
Data returned: Y

Data request: Entry `CNC(=O)c1ccc2c(C(=Nc3cccc(CN(C)C)c3)c3ccccc3)c(O)[nH]c2c1` : call = ?
Data returned: Y

Data request: Which result was noted for this compound in the test: `N#Cc1ccc(Oc2ccc3c(c2)COB3O)cc1`
Data returned: Y

Data request: Please indicate how the test categorized `CN[C@@H]1CN(c2ccc3c(=O)c(C(=O)O)cn(-c4nccs4)c3n2)C[C@@H]1OC` .
Data returned: Y

Data request: // param item: `COc1ccc(-c2oc3c(CC=C(C)C)c(O)cc(O)c3c(=O)c2O)cc1` ; yields the recorded call
Data returned: Y

Data request: I would be grateful if you could indicate the recorded call for `CC=C(C(=CC)c1ccc(O)cc1)c1ccc(O)cc1` .
Data returned: Y

Data request: Could you please tell me the result logged for `COc1ccc2cc1Oc1ccc(cc1)C[C@H]1c3cc(c(OC)cc3CCN1C)Oc1c(OC)c(OC)cc3c1[C@H](C2)N(C)CC3` in this assay?
Data returned: Y

Data request: Status in this test for `CS(=O)(=O)c1ccc(C2=C(c3ccccc3)C(=O)OC2)cc1` ?
Data returned: N

Data request: Each compound tested received a call. Report the one for `Cc1cccc2c1CC[C@H](CN1CCC(c3c(Cl)cccc3Cl)CC1)C[C@@H]2O` .
Data returned: Y

Data request: // outcome(item) with item = CN1C(=O)C(Cc2c[nH]c3ccccc23)NC1=S (stereo not given)
Data returned: N

Data request: Per the assay record, what outcome was assigned to `CON(C)C(=O)N1N=C(c2cc(F)ccc2F)S[C@]1(CCCN)c1ccccc1` ?
Data returned: N

Data request: Recorded call for `CC[C@H](NC(=O)[C@H](C)NC)C(=O)N1C[C@@H](O)C[C@H]1Cc1c(-c2[nH]c3cc(F)ccc3c2C[C@H]2C[C@H](O)CN2C(=O)[C@H](CC)NC(=O)[C@H](C)NC)[nH]c2cc(F)ccc12` ?
Data returned: Y

Data request: What was the test verdict on `Cc1ccc2c(=O)c3cccc(CC(=O)O)c3oc2c1C` ?
Data returned: Y

Data request: Returns: the outcome recorded for `Cc1ccc(NC(=O)Nc2cc(C(F)(F)F)ccc2F)cc1Nc1ccc2c(c1)NC(=O)C2=Cc1ccc[nH]1` in this assay.
Data returned: Y

Data request: How was `Cc1ccc(NC(=O)c2cccc(N(C)C)c2)cc1NC(=O)c1ccc(O)cc1` classified in this test?
Data returned: Y

Data request: // outcome(item) with item = `CC(C)(OCc1nn(Cc2ccccc2)c2ccccc12)C(=O)O`
Data returned: N

Data request: For this compound, state the assay outcome: `C=C1c2cccc(O)c2C(O)=C2C(=O)[C@@]3(O)C(O)=C(C(N)=O)C(=O)[C@@H](N(C)C)[C@@H]3[C@@H](O)[C@H]12`
Data returned: Y

Data request: Hello, I am checking results. What call was entered for `COc1nccc(-c2c(-c3ccc(F)cc3)ncn2C2CCNCC2)n1` ?
Data returned: Y

Data request: GET /call?item= `CN[C@H]1[C@@H](O[C@@H]2[C@H](O[C@@H]3[C@@H](O)[C@@H](O)[C@@H](N=C(N)N)[C@@H](O)[C@@H]3N=C(N)N)O[C@H](C)[C@@]2(O)C=O)O[C@@H](CO)[C@@H](O)[C@H]1O` returns the recorded outcome of this test.
Data returned: N

Data request: Write down the call the test reported for this compound. Item: `C[C@]12CC[C@@H]3c4ccc(O)cc4CC[C@H]3[C@H]1[C@@H](O)[C@@H](O)[C@H]2O`
Data returned: N

Data request: In this assay, the call recorded for `NS(=O)(=O)c1ccc(Nc2nc(OCC3CCCCC3)c3[nH]cnc3n2)cc1` was what?
Data returned: Y

Data request: Any idea what this test logged for `NC1(C(=O)N[C@@H](CCO)c2ccc(Cl)cc2)CCN(c2ncnc3[nH]ccc23)CC1` ?
Data returned: Y

Data request: Which outcome was entered for the compound CN(C)CCOc1cc(-c2cn[nH]c2)ccc1NC(=O)C1COc2ccccc2O1 (stereo not given) in this test?
Data returned: Y

Just for reference, PubChem BioAssay (NCATS) is where these values come from.
